tested on: mouse PI3K p85; assay: Inhibition of mouse PI3K p85 mRNA levels by antisense oligonucleotides, real-time quantitative RT-PCR; format: cell-based; parameters: concentration or dose not given beside the values; conditions: chimeric phosphorothioate 2′-MOE gapmers, averaged from two experiments
Strand notation (5' to 3'): a small letter for the sugar, then the base; units joined by * are phosphorothioate-linked, units joined directly phosphodiester-linked; [ ] holds rarer units or linkages, { } end groups; capitals alone tell only the bases. e = 2'-O-(2-methoxyethyl) (MOE); [5mC] = 5-methylcytosine; d = 2'-deoxy (DNA)
Parameter: % Inhib. of mouse PI3K p85 mRNA levels. Scope: all listed entries.
Give just the numeric value; % need not be written.

131423 (antisense eT*eT*eT*eG*e[5mC]*dT*dT*d[5mC]*dT*d[5mC]*dA*dG*dA*dG*dG*e[5mC]*e[5mC]*eT*eT*eG) [compound 131423]; 40

Just so you know, measured % Inhib. of mouse PI3K p85 mRNA levels for 131416 (antisense eT*eG*e[5mC]*eT*eG*dG*dT*dG*d[5mC]*dT*dG*dG*d[5mC]*dT*dG*eT*e[5mC]*eT*e[5mC]*eT) [compound 131416] came out at 68

Just so you know, measured % Inhib. of mouse PI3K p85 mRNA levels for 131419 (antisense eG*e[5mC]*eT*e[5mC]*e[5mC]*dT*dG*dG*dG*dT*dT*dT*dG*dG*d[5mC]*eA*eT*eT*eG*eT) [compound 131419] came out at 45

Just so you know, measured % Inhib. of mouse PI3K p85 mRNA levels for 131407 (antisense e[5mC]*eG*e[5mC]*eT*e[5mC]*d[5mC]*dA*d[5mC]*dT*d[5mC]*dT*d[5mC]*dA*dG*d[5mC]*eT*eT*e[5mC]*eA*e[5mC]) [compound 131407] came out at 85

Just so you know, measured % Inhib. of mouse PI3K p85 mRNA levels for 131421 (antisense eG*e[5mC]*eT*e[5mC]*e[5mC]*d[5mC]*dG*dA*d[5mC]*dA*dT*dT*d[5mC]*d[5mC]*dA*e[5mC]*eG*eT*e[5mC]*eT) [compound 131421] came out at 65

Just so you know, measured % Inhib. of mouse PI3K p85 mRNA levels for 131410 (antisense e[5mC]*e[5mC]*eT*eG*eG*d[5mC]*d[5mC]*dA*dT*d[5mC]*dA*d[5mC]*dT*dG*dA*eA*eT*e[5mC]*e[5mC]*eA) [compound 131410] came out at 95

Just so you know, measured % Inhib. of mouse PI3K p85 mRNA levels for 131411 (antisense e[5mC]*e[5mC]*eA*eG*eT*dG*dG*dT*dT*dT*d[5mC]*dA*dT*dT*dG*eT*eA*eG*e[5mC]*e[5mC]) [compound 131411] came out at 90

Just so you know, measured % Inhib. of mouse PI3K p85 mRNA levels for 131406 (antisense e[5mC]*eG*e[5mC]*eT*eG*d[5mC]*dT*dT*d[5mC]*d[5mC]*dT*d[5mC]*d[5mC]*dA*dA*e[5mC]*eT*e[5mC]*eG*eG) [compound 131406] came out at 56

---

Parameter: % Inhibition of PI3K p85 mRNA levels. Scope: all listed entries.
tested on: human PI3K p85 RNA; test: Inhibition of human PI3K p85 mRNA levels by antisense oligonucleotides, real-time quantitative PCR; format: cell-based; settings: chimeric phosphorothioate oligonucleotides with 2′-MOE wings and deoxy gap, oligonucleotide 150 nM, averaged from two experiments
Strand notation (5' to 3'): a small letter for the sugar, then the base; units joined by * are phosphorothioate-linked, units joined directly phosphodiester-linked; [ ] holds rarer units or linkages, { } end groups; capitals alone tell only the bases. e = 2'-O-(2-methoxyethyl) (MOE); [5mC] = 5-methylcytosine; d = 2'-deoxy (DNA)
Give just the numeric value; % need not be written.

28021 (antisense eG*eT*eA*eA*dG*dT*dC*dC*dA*dG*dG*dA*dG*dA*eT*eA*eG*e[5mC]) [compound 28021]; 43

Just so you know, measured % Inhibition of PI3K p85 mRNA levels for 28023 (antisense eG*e[5mC]*eT*eT*dG*dA*dA*dG*dA*dA*dA*dT*dG*dT*eT*eT*eT*eA) [compound 28023] came out at 43

Just so you know, measured % Inhibition of PI3K p85 mRNA levels for 28046 (antisense eA*eT*e[5mC]*eA*dG*dA*dC*dT*dG*dG*dA*dG*dA*dG*eG*eA*eG*e[5mC]) [compound 28046] came out at 32

FYI, the data here is from patent US20040077580A1.
